testDetails: Inhibition of human Nav1.7 expressed in HEK293 cells incubated for 1 hr in presence of veratridine by sodium influx assay
pIC50: −log10 of the molar value.
measurementName: pIC50

Qu. Give the measured pIC50 for CS(=O)(=O)NC(=O)c1cc(C2CC2)c(OCC2CCN(C(=O)c3cc(Cl)cc(Cl)c3)CC2)cc1F
Ans. 7.47

Qu. Give the measured pIC50 for CC(C)(c1cc(Cl)cc(Cl)c1)N1CCC(COc2cc(F)c(C(=O)NS(C)(=O)=O)cc2C2CC2)CC1
Ans. 7.59

Qu. Give the measured pIC50 for CS(=O)(=O)NC(=O)c1cc(C2CC2)c(OCC2CCN(Cc3ccc(OC(F)(F)F)cc3)CC2)cc1F
Ans. 7.51
